target: PI3Kα H1047R (T47D cells) (Homo sapiens, UniProt P42336, H1047R); construct: endogenous in cells; host or cells: T47D cells; test: PI3Kα cellular assay: pAKT HTRF in T47D cells after EGF stimulation; format: cell-based; details: T47D cells (PI3Kα H1047R), pAKT S473 HTRF, 1 hr compound, 20 ng/ml EGF 10 min
Sequence (P42336 whole entry H1047R): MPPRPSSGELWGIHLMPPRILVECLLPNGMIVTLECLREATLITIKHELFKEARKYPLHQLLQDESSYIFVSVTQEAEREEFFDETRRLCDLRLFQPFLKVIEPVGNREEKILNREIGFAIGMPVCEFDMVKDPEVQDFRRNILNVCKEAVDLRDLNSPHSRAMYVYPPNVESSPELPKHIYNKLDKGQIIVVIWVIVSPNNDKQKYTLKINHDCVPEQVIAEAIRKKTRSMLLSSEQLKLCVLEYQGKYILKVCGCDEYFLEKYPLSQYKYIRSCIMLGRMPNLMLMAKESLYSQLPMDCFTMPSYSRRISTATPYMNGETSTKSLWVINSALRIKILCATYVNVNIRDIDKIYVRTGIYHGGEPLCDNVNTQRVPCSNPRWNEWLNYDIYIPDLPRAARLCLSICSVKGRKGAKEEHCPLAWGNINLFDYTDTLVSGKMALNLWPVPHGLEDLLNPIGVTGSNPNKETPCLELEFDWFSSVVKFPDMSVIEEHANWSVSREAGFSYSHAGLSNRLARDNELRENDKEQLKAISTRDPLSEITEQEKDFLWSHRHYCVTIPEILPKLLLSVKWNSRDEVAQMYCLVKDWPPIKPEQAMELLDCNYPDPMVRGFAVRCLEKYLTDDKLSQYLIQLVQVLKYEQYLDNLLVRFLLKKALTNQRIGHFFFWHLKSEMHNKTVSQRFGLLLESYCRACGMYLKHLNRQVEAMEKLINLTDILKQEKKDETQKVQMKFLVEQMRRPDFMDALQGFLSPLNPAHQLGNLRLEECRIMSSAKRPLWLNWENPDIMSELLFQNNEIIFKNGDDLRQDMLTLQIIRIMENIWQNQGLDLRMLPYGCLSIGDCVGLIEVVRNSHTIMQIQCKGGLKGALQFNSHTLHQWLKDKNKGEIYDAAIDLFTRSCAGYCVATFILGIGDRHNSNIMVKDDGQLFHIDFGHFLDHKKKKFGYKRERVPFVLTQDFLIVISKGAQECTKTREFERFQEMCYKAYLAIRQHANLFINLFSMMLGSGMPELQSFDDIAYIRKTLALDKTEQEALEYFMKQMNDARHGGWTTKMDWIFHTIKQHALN
Sequence (P27986 whole entry partner): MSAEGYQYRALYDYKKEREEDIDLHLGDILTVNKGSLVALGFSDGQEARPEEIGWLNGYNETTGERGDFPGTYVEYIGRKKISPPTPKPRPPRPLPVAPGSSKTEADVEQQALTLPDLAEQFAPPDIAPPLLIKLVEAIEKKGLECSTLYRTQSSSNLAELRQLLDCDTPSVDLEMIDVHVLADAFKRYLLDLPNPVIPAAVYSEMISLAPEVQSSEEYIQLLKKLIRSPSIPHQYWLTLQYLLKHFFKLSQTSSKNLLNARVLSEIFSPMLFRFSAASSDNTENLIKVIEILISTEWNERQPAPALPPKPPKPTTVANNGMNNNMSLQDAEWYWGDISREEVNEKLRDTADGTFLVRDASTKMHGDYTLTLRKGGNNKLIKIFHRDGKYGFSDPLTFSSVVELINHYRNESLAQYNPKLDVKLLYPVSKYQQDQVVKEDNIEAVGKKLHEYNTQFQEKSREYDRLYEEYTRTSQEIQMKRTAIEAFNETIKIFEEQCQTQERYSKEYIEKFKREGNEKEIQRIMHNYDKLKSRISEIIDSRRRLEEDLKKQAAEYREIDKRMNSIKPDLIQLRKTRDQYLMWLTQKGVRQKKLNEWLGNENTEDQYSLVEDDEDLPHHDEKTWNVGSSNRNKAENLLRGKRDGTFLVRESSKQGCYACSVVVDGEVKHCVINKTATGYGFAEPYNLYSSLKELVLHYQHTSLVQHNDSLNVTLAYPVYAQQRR
pIC50: −log10 of the molar value.
Items are presented alongside their recorded pIC50.
OBSERVED PROPERTY: pIC50

1) Cc1cc([C@H](C)Nc2ccccc2C#N)c2nc(N3CCOCC3)cc(=O)n2c1 [Compound 338]
< 5.70
2) Cc1cc([C@H](C)Nc2ccccc2C(N)=O)c2nc(N3CCOCC3)cc(=O)n2c1 [Compound 147]
5.70 to 6.30
3) Cc1cc([C@@H](C)Nc2ccccc2C(N)=O)c2nc(N3Cc4ccccc4C3)cc(=O)n2c1 (single isomer, unassigned) [Compound 620]
> 7.00
4) Cc1cc([C@H](C)Nc2ccccc2C(=O)O)c2nc(N3CCC(C)CC3)cc(=O)n2c1 [Compound 360]
< 5.70
5) Cc1cc(C(C)Nc2ccccc2C(=O)O)c2nc(-c3ccc4[nH]cnc4c3)cc(=O)n2c1 (stereo not shown) [Compound 515]
5.70 to 6.30
6) Cc1cc([C@H](C)Nc2ccccc2-n2nn[nH]c2=O)c2nc(N3CCOCC3)cc(=O)n2c1 [Compound 344]
< 5.70
7) Cc1cc([C@H](C)Nc2ccccc2C(=O)O)c2nc(C3CCOCC3)cc(=O)n2c1 [Compound 317]
6.30 to 7.00
